target: HSA (Homo sapiens); assay: Drug screening: HSA binding constants from DSC thermograms; details: Average Measured KD, binding to HSA; single value or value marked 1)
Sequence (P02768 25-609): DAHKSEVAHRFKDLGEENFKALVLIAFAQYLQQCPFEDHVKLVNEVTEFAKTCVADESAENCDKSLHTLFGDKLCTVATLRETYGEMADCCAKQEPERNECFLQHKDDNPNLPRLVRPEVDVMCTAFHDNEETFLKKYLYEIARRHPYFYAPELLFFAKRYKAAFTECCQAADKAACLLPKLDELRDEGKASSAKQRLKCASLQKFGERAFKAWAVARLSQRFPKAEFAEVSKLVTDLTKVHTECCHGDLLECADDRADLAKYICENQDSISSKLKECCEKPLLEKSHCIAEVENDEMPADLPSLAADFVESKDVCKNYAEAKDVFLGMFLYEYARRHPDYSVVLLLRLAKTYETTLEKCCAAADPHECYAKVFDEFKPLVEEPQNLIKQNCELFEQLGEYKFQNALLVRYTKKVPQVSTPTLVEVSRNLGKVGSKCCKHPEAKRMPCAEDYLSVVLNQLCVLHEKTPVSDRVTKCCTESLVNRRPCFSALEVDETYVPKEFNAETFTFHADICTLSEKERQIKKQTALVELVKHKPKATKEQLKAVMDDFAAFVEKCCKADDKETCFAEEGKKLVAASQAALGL
outcome_measure: Kd (µM)

1) COCCc1ccc(OCC(O)CNC(C)C)cc1 (stereo not drawn)    11.1
2) O=C1OC2(c3ccc(O)cc3Oc3cc(O)ccc32)c2ccccc21    68
3) C=CC1=C(C)/C(=C/c2[nH]c(Cc3[nH]c(/C=C4\NC(=O)C(C)=C4C=C)c(C)c3CCC(=O)O)c(CCC(=O)O)c2C)NC1=O    0.33
4) C[C@H](CS)C(=O)N1CCC[C@H]1C(=O)O    3.75
5) CCCCNc1ccc(C(=O)OCCN(C)C)cc1    26.1
6) CC(NC(C)(C)C)C(=O)c1cccc(Cl)c1 (stereo not drawn)    0.25
